Test system: subclones of RKO colon adenocarcinoma cells (RKOp27 or RKOp21) arrested by Ponasterone A
Test: Alamar Blue cell viability assay, cell cycle specific mode of action: cells arrested by ectopic p27Kip1 induced by Ponasterone A versus proliferating cells
Assay type: cell-based
Conditions: Homo sapiens, RKO p27 induced (arrested) cells, 10 μM Ponasterone A, 72 hours, value = class bound given in Table A, read-out: −logIC50 RKO p27 induced (arrested) (converted)
measured property: IC50

1. CC(CC(=O)Nc1sc2c(c1C#N)CCC(OC(=O)NCc1nccn1C)C2)c1ccccc1 (stereo not shown); ≥ 10 µM
2. N#Cc1c(NC(=O)/C=C/c2cccnc2)sc2c1CCC(OC(=O)N1CCCCC1)C2 (stereo not shown); ≥ 100 µM
3. CC(CC(=O)Nc1sc2c(c1C#N)CCC(OC(=O)NCCc1cccnc1)C2)c1ccccc1 (stereo not shown); ≥ 10 µM
4. COCCNC(=O)OCC1CCc2c(sc(NC(=O)CCc3cccc(OC)c3)c2C#N)C1 (stereo not shown); ≥ 100 µM
5. N#Cc1c(NC(=O)/C=C/c2cccnc2)sc2c1CCC(COC(=O)n1cccc1)C2 (stereo not shown); ≥ 100 µM
6. CN(C)C(=O)OC[C@H]1CCc2c(sc(NC(=O)/C=C/c3cccnc3)c2C#N)C1 [Example 74a]; ≥ 100 µM
7. Cc1oncc1CNC(=O)OC1CCc2c(sc(NC(=O)CC(C)c3ccccc3)c2C#N)C1 (stereo not shown); ≥ 100 µM
8. CN(C)C(=O)OCC1CCc2c(sc(NC(=O)/C=C/c3cccnc3)c2C#N)C1 (stereo not shown); ≥ 100 µM
9. COc1cccc(CCC(=O)Nc2sc3c(c2C#N)CCC(OC(=O)NCC2CCCO2)C3)c1 (stereo not shown); ≥ 100 µM
10. COc1cccc(CCC(=O)Nc2sc3c(c2C#N)CCC(OC(=O)NCCn2ccnc2)C3)c1 (stereo not shown); ≥ 50.1 µM
11. COc1cccc(C(C)CC(=O)Nc2sc3c(c2C#N)CCC(OC(=O)N2CCCC2)C3)c1 (stereo not shown); ≥ 10 µM
12. COc1cccc(CCC(=O)Nc2sc3c(c2C#N)CCC(OC(=O)NCc2cc(C)on2)C3)c1 (stereo not shown); ≥ 100 µM
13. COc1cccc(CCC(=O)Nc2sc3c(c2C#N)CCC(COC(=O)NCc2ccnn2C)C3)c1 (stereo not shown); ≥ 100 µM
14. COc1cccc(CCC(=O)Nc2sc3c(c2C#N)CCC(COC(=O)NCc2cc(C)no2)C3)c1 (stereo not shown); ≥ 100 µM
15. N#Cc1c(NC(=O)/C=C/c2cccnc2)sc2c1CCC(OC(=O)N1CC=CC1)C2 (stereo not shown); ≥ 100 µM
16. COc1cccc(C(C)CC(=O)Nc2sc3c(c2C#N)CCC(COC(=O)NCCc2cccnc2)C3)c1 (stereo not shown); ≥ 50.1 µM

###

In this section we review reported IC50 values for a set of compounds.
Tested on: subclones of RKO colon adenocarcinoma cells (RKOp27 or RKOp21) arrested by Ponasterone A
Assay: Alamar Blue cell viability assay, cell cycle specific mode of action: cells arrested by ectopic p27Kip1 induced by Ponasterone A versus proliferating cells
Format: cell-based
Conditions: Homo sapiens, RKO p27 induced (arrested) cells, 10 μM Ponasterone A, 72 hours, value = class bound given in Table A, read-out: −logIC50 RKO p27 induced (arrested) (converted)
measured property: IC50

1) Cc1nn(C)cc1CNC(=O)OC1CCc2c(sc(NC(=O)/C=C/c3cccnc3)c2C#N)C1 (centres unmarked); ≥ 100 µM
2) COc1cccc(C(C)CC(=O)Nc2sc3c(c2C#N)CCC(OC(=O)NCCn2ccnc2)C3)c1 (centres unmarked); ≥ 50.1 µM
3) Cc1cc(CNC(=O)OCC2CCc3c(sc(NC(=O)CC(C)c4cccnc4)c3C#N)C2)no1 (centres unmarked); ≥ 100 µM
4) N#Cc1c(NC(=O)/C=C/c2cccnc2)sc2c1CCC(COC(=O)N1CC(O)C1)C2 (centres unmarked); ≥ 100 µM
5) CCOc1ccccc1/C=C/C(=O)Nc1sc2c(c1C#N)CCC(OC(=O)NCCOC)C2 (centres unmarked); ≥ 50.1 µM
6) CCNC(=O)OCC1CCc2c(sc(NC(=O)/C=C/c3cccnc3)c2C#N)C1 (centres unmarked); ≥ 100 µM
7) Cc1n[nH]cc1CNC(=O)OC1CCc2c(sc(NC(=O)CC(C)c3ccccc3)c2C#N)C1 (centres unmarked); ≥ 10 µM
8) Cn1nccc1CNC(=O)OC1CCc2c(sc(NC(=O)/C=C/c3cccnc3)c2C#N)C1 (centres unmarked); ≥ 100 µM
9) Cc1ccncc1/C=C/C(=O)Nc1sc2c(c1C#N)CCC(COC(=O)N1CCC[C@@H](O)C1)C2 (some centres unmarked); ≥ 100 µM
10) CC(CC(=O)Nc1sc2c(c1C#N)CCC(COC(=O)NCc1ccncc1)C2)c1ccccc1 (centres unmarked); ≥ 50.1 µM
11) CN(C)C(=O)OC[C@@H]1CCc2c(sc(NC(=O)/C=C/c3cccnc3)c2C#N)C1 [Example 74b]; ≥ 100 µM
12) Cn1cccc1CNC(=O)OCC1CCc2c(sc(NC(=O)/C=C/c3cccnc3)c2C#N)C1 (centres unmarked); ≥ 100 µM
13) CCOc1ccccc1CCC(=O)Nc1sc2c(c1C#N)CCC(COC(=O)N1CCOCC1)C2 (centres unmarked); ≥ 100 µM
14) CC(CC(=O)Nc1sc2c(c1C#N)CCC(COC(=O)NCc1ccccn1)C2)c1ccccc1 (centres unmarked); ≥ 50.1 µM
15) COc1cccc(CCC(=O)Nc2sc3c(c2C#N)CCC(COC(=O)OCc2nccs2)C3)c1 (centres unmarked); ≥ 50.1 µM
16) N#Cc1c(NC(=O)/C=C/c2cccnc2)sc2c1CCC(OC(=O)NC1CCC1)C2 (centres unmarked); ≥ 100 µM
17) CCOc1ccccc1CCC(=O)Nc1sc2c(c1C#N)CCC(COC(=O)NCc1nc(C)cs1)C2 (centres unmarked); ≥ 100 µM
18) COc1cccc(C(C)CC(=O)Nc2sc3c(c2C#N)CCC(COC(=O)NCc2cc(C)nn2C)C3)c1 (centres unmarked); ≥ 10 µM
19) CCOC(=O)OC1CCc2c(sc(NC(=O)/C=C/c3cccnc3)c2C#N)C1 (centres unmarked); ≥ 100 µM
20) COc1cccc(CCC(=O)Nc2sc3c(c2C#N)CCC(OC(=O)NCc2cn(C)cn2)C3)c1 (centres unmarked); ≥ 100 µM
21) COc1cccc(CCC(=O)Nc2sc3c(c2C#N)CCC(COC(=O)NCc2ccno2)C3)c1 (centres unmarked); ≥ 100 µM
22) COc1cccc(C(C)CC(=O)Nc2sc3c(c2C#N)CCC(COC(=O)NCc2csc(C)n2)C3)c1 (centres unmarked); ≥ 100 µM
23) COc1cccc(C(C)CC(=O)Nc2sc3c(c2C#N)CCC(COC(=O)NCc2cccnc2)C3)c1 (centres unmarked); ≥ 50.1 µM
24) N#Cc1c(NC(=O)/C=C/c2cccnc2)sc2c1CCC(COC(=O)NC1COC1)C2 (centres unmarked); ≥ 100 µM
25) COc1cccc(CCC(=O)Nc2sc3c(c2C#N)CCC(COC(=O)N2CCCC2)C3)c1 (centres unmarked); ≥ 100 µM
26) CCOc1ccccc1CCC(=O)Nc1sc2c(c1C#N)CCC(COC(=O)NCc1cc(C)on1)C2 (centres unmarked); ≥ 100 µM
27) CC(CC(=O)Nc1sc2c(c1C#N)CCC(COC(=O)NCc1cccn1C)C2)c1cccnc1 (centres unmarked); ≥ 50.1 µM
28) COc1cccc(C(C)CC(=O)Nc2sc3c(c2C#N)CCC(OC(=O)NCc2cn(C)nc2C)C3)c1 (centres unmarked); ≥ 100 µM
29) COc1cccc(C(C)CC(=O)Nc2sc3c(c2C#N)CCC(COC(=O)NCc2c[nH]nc2C)C3)c1 (centres unmarked); ≥ 10 µM
30) Cc1cc(CNC(=O)OCC2CCc3c(sc(NC(=O)/C=C/c4cnccc4C)c3C#N)C2)no1 (centres unmarked); ≥ 100 µM
31) CCOc1ccccc1CCC(=O)Nc1sc2c(c1C#N)CCC(OC(=O)NCc1cnn(C)c1)C2 (centres unmarked); ≥ 100 µM
32) CN(C)c1ncc(CNC(=O)OCC2CCc3c(sc(NC(=O)/C=C/c4cccnc4)c3C#N)C2)s1 (centres unmarked); ≥ 100 µM

Origin of the recorded values: patent US20110044938A1
